molecular target: T1, human PD-1 extracellular domain (human, UniProt Q15116 25-170); assay: bio-layer interferometry (Octet Red 96), antibody on anti-human Fc biosensor, PD-1 ECD in solution, 1:1 global fit, 30 C
T1 construct: extracellular domain; Soluble analyte in the bio-layer interferometry assay; also called recombinant human PD-1 extracellular domain protein
T1 sequence (Q15116 25-170): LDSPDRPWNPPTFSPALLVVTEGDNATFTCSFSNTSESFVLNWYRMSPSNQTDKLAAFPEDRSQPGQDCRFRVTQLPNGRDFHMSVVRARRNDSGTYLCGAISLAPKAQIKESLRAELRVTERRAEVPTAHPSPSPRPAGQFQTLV
METRIC NAME: kon (M⁻¹ s⁻¹)
Numeric only. Scale: M⁻¹ s⁻¹

Ask: # kon lookup, item AB3HU (antibody, human IgG1, kappa, V domains shown, Humanized, human gamma-1 / kappa constant domains as in the full-length entries; also called humanized form of antibody AB3) VH: QEQVKETGGGLVQPGGSLRLSCAASGFTISSYGVSWVRQAPGKGLEWVALIFPGIGFKDYASWVNGRFTLSSDNAQNTVELQMNSLRAEDTAVYYCARDLDLWGQGTLVTVSS VL: DIQMTQSPSSLSASVGDRVTITCQSSPSVYSNYLSWYQQKPGKVPKLLIYYASTLASGVPSRFSGSGSGTDFTLTISSLQPEDVATYYCAGGYSSSTRAFGGGTKVEIKR
Result: 130000
